Molecular target: GIPC2, Q8TF65
Sequence (Q8TF65 112-203): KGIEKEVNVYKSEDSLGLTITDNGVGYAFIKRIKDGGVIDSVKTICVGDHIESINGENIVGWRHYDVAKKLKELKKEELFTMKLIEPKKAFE
Test: holdup assay
Design: key: below the threshold = too weak to quantify, mostly under pKd 3.1 to 4
Conditions: plain residues with an end cap or a label only (N-terminal biotin on a linker: ado-ado)
assay.metric: pKd

binder	assay.metric	result
LPPPESESKV [KCNJ9, Q92806]	pKd	below the threshold
SGDGKTSVWI [GJC1, P36383]	pKd	below the threshold
DLLGGGSDSI [TNRC6B, Q9UPQ9]	pKd	3.55
NKSEPFLTWL [WWTR1, Q9GZV5]	pKd	below the threshold
PSVYSRSQYV [CLDN8, P56748]	pKd	below the threshold
